Numbers sourced from patent US20190071499A1.

- tested on: T1, human Fc fusion mouse IFN-α4 (mouse, UniProt P07351 25-186)
- T1 construct: bought (SinoBiological); also called murine IFN-α4; not shown: human Fc
- T1 sequence (looked up): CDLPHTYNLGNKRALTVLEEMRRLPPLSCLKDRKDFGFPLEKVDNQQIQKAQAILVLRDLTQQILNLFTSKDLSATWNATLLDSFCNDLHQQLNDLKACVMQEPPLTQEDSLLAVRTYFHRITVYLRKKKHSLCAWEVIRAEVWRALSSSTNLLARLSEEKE
- assay name: ELISA, human Fc fusion mouse IFN-α
measured attribute: binding result

1) 5D1 (antibody, human IgG1, kappa, V domains shown, human-derived IgG1, kappa; also called MAB 5D1; hMAB 5D1) VH: EVQLVQAGAEVKAPGESLRISCKVSGYTFTSYWISWVRQIPGKGLEWMVKIDPRDSYTIYNPSFQGHVSISVDKSITTVYLQWSSLQASDTAIYYCVRHYLTQSLVDYFDHWGQGTLVAVSS VL: DIQMTQSPSSLSASVGDSVTITCRASQSVSNYFHWYRQKPGKAPELLIYSASNLQTGVPSRFTGSGSGTECTLTITSLQPDDFATYYCQQTHGYPFTFGQGTKLDVRR ... no binding
2) 13B11 (antibody, human IgG1, kappa, V domains shown, human-derived IgG1, kappa; also called MAB 13B11; hMAB 13B11) VH: DVQLLQSGGGLIQPGGSLRLSCAASGFTFKDYAMSWVRQAPGKGLEWVSVISRSGNIVDYVDSVKGRFTVSRDNSNNTLFLQMDGLRADDTAIYYCAKPKDMIVVVPAGFDSWGQGTLVSVSS VL: DIQMTQFPSTLSASVGDSVTITCRASQSISAWLAWYQQKPGKAPKLLIYKGSRLENGVPSRFSGSGSGTEFTLTIGSLQPDDFATYYCQQYKTWTFGQGTKVEIKR ... no binding
3) 26B9 (antibody, human IgG1, kappa, V domains shown, human-derived IgG1, kappa; also called MAB 26B9; hMAB 26B9) VH: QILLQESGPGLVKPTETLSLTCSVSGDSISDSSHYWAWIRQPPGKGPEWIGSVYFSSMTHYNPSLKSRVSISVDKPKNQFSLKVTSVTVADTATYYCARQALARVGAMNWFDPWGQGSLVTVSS VL: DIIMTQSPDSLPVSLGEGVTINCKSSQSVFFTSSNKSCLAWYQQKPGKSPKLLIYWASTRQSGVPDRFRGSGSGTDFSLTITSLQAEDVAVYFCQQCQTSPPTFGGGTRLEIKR ... no binding
